Tested on: Plasmodium falciparum
Test Name: NOVARTIS: Inhibition of Plasmodium falciparum W2 (drug-resistant) proliferation in erythrocyte-based infection assay
Format: functional, organism-based
Run Conditions: Plasmodium falciparum, W2; read-out: EC50
pEC50: −log10 of the molar value.
Label scheme for pEC50: low interval (below 6), middle interval (6 to below 7), high interval (7 or more)

- Molecule: "O=C1CSC(=S)N1c1cccc(Cl)c1"
  Measured On: "Plasmodium falciparum"
  Group: "low interval"
- Molecule: "COc1ccc(-n2cc(-c3ccc(C)cc3)nc2SCC(=O)Nc2ccc(C)cc2)cc1"
  Measured On: "Plasmodium falciparum"
  Group: "low interval"
- Molecule: "O=C1c2ccccc2-c2nnc(-c3ccccc3)cc21"
  Measured On: "Plasmodium falciparum"
  Group: "middle interval"
- Molecule: "O=C1Cc2c([nH]c3ccc(OCc4ccccc4)cc23)C2CC=CCC12 (stereo not drawn)"
  Measured On: "Plasmodium falciparum"
  Group: "low interval"
- Molecule: "c1ccc([Si]2(c3ccccc3)N[Si](c3ccccc3)(c3ccccc3)N[Si](c3ccccc3)(c3ccccc3)N2)cc1"
  Measured On: "Plasmodium falciparum"
  Group: "middle interval"
- Molecule: "CCOC(=O)C1=C(C)NC2=C(C(=O)CC(c3ccc(OC)c(OC)c3)C2)C1c1ccc(Cl)cc1Cl (stereo not drawn)"
  Measured On: "Plasmodium falciparum"
  Group: "high interval"
- Molecule: "COc1ccc(C2CC(=O)C3=C(C2)NC(C)=C(C(=O)OC(C)C)C3c2ccc(F)cc2)cc1 (stereo not drawn)"
  Measured On: "Plasmodium falciparum"
  Group: "high interval"
- Molecule: "CN(C)CCCNc1c2ccccc2nc2ccccc12"
  Measured On: "Plasmodium falciparum"
  Group: "middle interval"
- Molecule: "Cc1ccc(-n2nnnc2SCc2nc(-c3cccc([N+](=O)[O-])c3)no2)c(C)c1"
  Measured On: "Plasmodium falciparum"
  Group: "low interval"
- Molecule: "Cc1cc(NC(=O)C2c3ccccc3C(=O)N(CC(C)C)C2c2cccs2)no1 (stereo not drawn)"
  Measured On: "Plasmodium falciparum"
  Group: "high interval"
- Molecule: "COc1ccc(C2=C(c3ccc(OC)cc3)C3C(=O)C2C2C(=O)N(c4cccc5ccccc45)C(=O)C32)cc1 (stereo not drawn)"
  Measured On: "Plasmodium falciparum"
  Group: "low interval"
- Molecule: "Oc1ccc(-c2ccnc3cc(Cl)ccc23)cc1CNCCN1CCOCC1"
  Measured On: "Plasmodium falciparum"
  Group: "middle interval"
- Molecule: "O=C(CN1C(=O)c2ccccc2C1=O)Nc1cc(Cl)ccc1C(=O)O"
  Measured On: "Plasmodium falciparum"
  Group: "middle interval"
- Molecule: "CCC(=O)NCc1nnc(SCc2cccc(C(F)(F)F)c2)n1-c1cccc(OC)c1"
  Measured On: "Plasmodium falciparum"
  Group: "low interval"
- Molecule: "C[C@H](Nc1cncc(-c2ccc(Cl)cc2)n1)c1ccccc1"
  Measured On: "Plasmodium falciparum"
  Group: "high interval"
- Molecule: "CC1(C)C2CCC1(C)C(OCC[N+]1(Cc3ccccc3)CCCC1)C2 (stereo not drawn)"
  Measured On: "Plasmodium falciparum"
  Group: "middle interval"
- Molecule: "CC(OC(=O)c1ccccc1N1C(=O)C2C3C=CC(C4CC34)C2C1=O)C(=O)c1ccccc1 (stereo not drawn)"
  Measured On: "Plasmodium falciparum"
  Group: "low interval"
- Molecule: "COc1cc(OC)cc(C(=O)N2CCN(Cc3cccc(Br)c3)CC2)c1"
  Measured On: "Plasmodium falciparum"
  Group: "low interval"
- Molecule: "CC(C)C1N=C2c3ccccc3N=C(SCC(=O)Nc3cc(C(F)(F)F)ccc3Cl)N2C1=O (stereo not drawn)"
  Measured On: "Plasmodium falciparum"
  Group: "low interval"
- Molecule: "Nc1c(C(=O)c2ccc(Br)cc2)sc2nc(-c3cccnc3)ccc12"
  Measured On: "Plasmodium falciparum"
  Group: "low interval"
- Molecule: "OC1=C2C(=Nc3ccccc3SC2c2cccs2)c2ccccc21 (stereo not drawn)"
  Measured On: "Plasmodium falciparum"
  Group: "high interval"
- Molecule: "CN(C)CCCNCc1cc(-c2cccnc2)ccc1O"
  Measured On: "Plasmodium falciparum"
  Group: "middle interval"
